Documented pKd across a set of binders
Molecular target: Fc-fusion protein receptor ectodomain of BMPR-IA
Assay: SPR (Biacore T100), receptor ectodomain-Fc on protein G chip, kinetic 1:1 fit; measurement 2
Units for pKd: none; it is -log10 of a concentration expressed in mol/L.

Examples from the recorded data:
{"columns": ["Binder", "pKd"],
 "data": [
  ["recombinant human GDF-5 mutant I449V (ligand) APLATRQGKRPSKNLKARCSRKALHVNFKDMGWDDWIIAPLEYEAFHCEGLCEFPLRSHLEPTNHAVVQTLMNSMDPESTPPTCCVPTRLSPISILFIDSANNVVYKQYEDMVVESCGCR", 8.24],
  ["recombinant human GDF-5 wild type (ligand) APLATRQGKRPSKNLKARCSRKALHVNFKDMGWDDWIIAPLEYEAFHCEGLCEFPLRSHLEPTNHAVIQTLMNSMDPESTPPTACVPTRLSPISILFIDSANNVVYKQYEDMVVESCGCR", 8.96],
  ["human GDF-5 mutant M412V (ligand) APLATRQGKRPSKNLKARCSRKALHVNFKDVGWDDWIIAPLEYEAFHCEGLCEFPLRSHLEPTNHAVIQTLMNSMDPESTPPTCCVPTRLSPISILFIDSANNVVYKQYEDMVVESCGCR", 7.89]
]}

Any idea what pKd was measured for human GDF-5 mutant W417F (ligand) APLATRQGKRPSKNLKARCSRKALHVNFKDMGWDDFIIAPLEYEAFHCEGLCEFPLRSHLEPTNHAVIQTLMNSMDPESTPPTCCVPTRLSPISILFIDSANNVVYKQYEDMVVESCGCR ?
7.57

Where do these numbers come from? They come from patent US20140369978A1.
